target: Neutrophil elastase (Homo sapiens, UniProt P08246); assay: Inhibition of human neutrophil elastase using N-MeOSuc-Ala-Ala-Pro-Val-p-nitroanilide as substrate incubated for 30 mins prior to substrate addition measured for 60 mins by chromogenic 96 well microplate assay; settings: read-out: IC50
Sequence (P08246 whole entry): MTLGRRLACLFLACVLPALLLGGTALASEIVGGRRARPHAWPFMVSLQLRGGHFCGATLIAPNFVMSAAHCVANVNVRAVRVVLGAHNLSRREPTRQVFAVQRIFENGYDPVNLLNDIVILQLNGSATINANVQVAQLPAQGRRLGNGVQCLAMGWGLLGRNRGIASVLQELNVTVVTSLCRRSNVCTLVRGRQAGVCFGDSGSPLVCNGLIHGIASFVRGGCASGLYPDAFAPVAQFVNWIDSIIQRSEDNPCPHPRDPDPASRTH
pIC50: −log10 of the molar value.
Each item that follows carries a reported pIC50.

query: Given COc1ccc(-n2c(COc3ccc4ccccc4c3)nnc2SCC(N)=O)cc1 , state its recorded pIC50.
result: < 4.00

query: Given NC(=O)CSc1nnc2c3c4c(sc3nc(SCc3ccccc3)n12)CCC4 , state its recorded pIC50.
result: < 4.00

query: Given Cc1ccc(-n2c(COc3ccc4ccccc4c3)nnc2SCC(=O)O)cc1 , state its recorded pIC50.
result: < 4.00

query: Given COC(=O)C(CSCc1ccccc1)NC(=O)CSc1nc2ccccc2[nH]1 (stereo not given) , state its recorded pIC50.
result: < 4.00

query: Given COc1ccc(-n2c(COc3ccc4ccccc4c3)nnc2SCC(=O)O)cc1 , state its recorded pIC50.
result: < 4.00

query: Given O=C(CSc1nnc2scc(-c3ccc(Cl)cc3)n12)NCc1cccnc1 , state its recorded pIC50.
result: < 4.00

query: Given O=C(CSc1nnc(Cc2ccccc2)n1Cc1ccccc1)NCc1ccco1 , state its recorded pIC50.
result: < 4.00

query: Given Nc1nnc(SC(C(=O)Nc2cc(Cl)cc(Cl)c2)c2ccccc2)[nH]1 (stereo not given) , state its recorded pIC50.
result: 4.57

query: Given O=C(Oc1coc(CSc2nnc(NC(=O)C3CC3)s2)cc1=O)c1cccc(F)c1 , state its recorded pIC50.
result: 4.74

query: Given Oc1ccc2c(c1)Oc1ncn3nc(CO/N=C/c4ccccc4)nc3c1C2c1ccccc1 (stereo not given) , state its recorded pIC50.
result: < 4.00
